Experiment: chemical genetic growth profiling, strain panel (AID 1159580);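 note: tested at 20 µM; growth read once vehicle control cultures reached saturation at 30 °C; 1 = growth at the plate median or of vehicle wells; lower values mean less growth of the strain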
Conditions: S. cerevisiae deletion strains, growth OD, locus YKR026C, strain gcn3, active compounds read low
Among all 5,500 compounds or so, about 2,000 (36%) were called active. Roughly 18% stayed inconclusive and do not appear here. The list shows a part of the results.

# Compound, normalized growth
rows = [
    ("CN(C)CCN(Cc1ccccc1)c1ccccn1", 1),
    ("CC(=O)S[C@@H]1CC2=CC(=O)CC[C@]2(C)[C@H]2CC[C@@]3(C)[C@@H](CC[C@@]34CCC(=O)O4)C12 (some centres undefined)", 1.01),
    ("O=S(=O)(O)c1cc(N=C=S)ccc1/C=C/c1ccc(N=C=S)cc1S(=O)(=O)O", 1.02),
    ("CN1CCC(OC(c2ccccc2)c2ccccc2)CC1", 0.989),
    ("CC#CC1(O)CCC2C3CCC4=CC(=O)CCC4=C3C(c3ccc(N(C)C)cc3)CC21C (centres undefined)", 0.993),
    ("COc1cc2nc(N(C)CCCNC(=O)C3CCCO3)nc(N)c2cc1OC (centres undefined)", 0.995),
    ("CCCCNC(=O)NS(=O)(=O)c1ccc(C)cc1", 0.999),
    ("CCCCCCCCC(=O)NCc1ccc(O)c(OC)c1", 0.979),
    ("C=CC[C@]1(O)CCC2C3CCC4=CC(=O)CCC4=C3C=C[C@@]21C (some centres undefined)", 0.977),
    ("Clc1ccc(C(OCCN2CCCCC2)c2ccccc2)cc1 (centres undefined)", 1.02),
    ("Cc1ccc(S(=O)(=O)NC(=O)NN2CCCCCC2)cc1", 0.992),
    ("COC(=O)/C=C/C(C)=C/C=C/C(C)=C/C=C/C=C(C)/C=C/C=C(C)/C=C/C(=O)O", 1.02),
    ("C[C@]12CCC(=O)C=C1C=CC1C2CC[C@@]2(C)C1CC[C@@]21CCC(=O)O1 (some centres undefined)", 0.98),
    ("Cn1c(=O)c2c(ncn2CC(O)CO)n(C)c1=O (centres undefined)", 0.974),
    ("COc1cc([C@@H]2c3cc4c(cc3[C@@H](O)C3COC(=O)C32)OCO4)cc(OC)c1O (some centres undefined)", 0.991),
    ("Nc1nc(=S)c2[nH]cnc2[nH]1", 0.976),
    ("C#CCN(C)Cc1ccccc1", 1.02),
    ("CN1CC(=O)N=C1N", 0.994),
    ("O=c1c(-c2ccc(O)cc2)coc2cc(O)ccc12", 0.976),
    ("COc1ccc(CN(CCN(C)C)c2ccccn2)cc1", 1.01),
    ("O=C(O[C@@H]1Cc2c(O)cc(O)cc2O[C@@H]1c1cc(O)c(O)c(O)c1)c1cc(O)c(O)c(O)c1", 0.998),
    ("O=C(c1ccc(OCCN2CCCCC2)cc1)c1c(-c2ccc(O)cc2)sc2cc(O)ccc12", 1.01),
    ("Cc1ccccc1C(OCCN(C)C)c1ccccc1 (centres undefined)", 1.01),
    ("COc1ccc(-c2coc3cc(O)ccc3c2=O)c(OC)c1", 1),
    ("COc1ccc(C2CNC(=O)C2)cc1OC1CCCC1 (centres undefined)", 0.994),
    ("C/C=C(\\C)C(=O)O[C@H]1C[C@@H](OC(C)=O)[C@@]2(C(=O)OC)CO[C@@H]3C2[C@]12CO[C@](O)(C(=O)OC)[C@H]2[C@](C)(C12O[C@@]1(C)[C@H]1C[C@@H]2OC2OC=C[C@@]21O)[C@@H]3O (some centres undefined)", 0.992),
    ("COc1ccc2c(c1)OC1(O)COc3cc(OC)c(OC)cc3C1=C2 (centres undefined)", 0.974),
    ("Cc1ccc(C(=O)Nc2ccc(S(=O)(=O)O)c3cc(S(=O)(=O)O)cc(S(=O)(=O)O)c23)cc1NC(=O)c1cccc(NC(=O)Nc2cccc(C(=O)Nc3cc(C(=O)Nc4ccc(S(=O)(=O)O)c5cc(S(=O)(=O)O)cc(S(=O)(=O)O)c45)ccc3C)c2)c1", 1.02),
    ("COc1ccc2c(c1)OC/C(=C/c1ccc(OC)c(OC)c1)C2=O", 0.984),
]
